// data source = PubChem BioAssay (NCI)

# Lookup of reported growth keyed by entry
tested on: CAKI-1 renal; experiment: NCI-60 one-dose screen, 48 h (100 = growth as untreated, 0 = no growth, -100 = all killed); settings: 10 µM unless noted
The panel holds about 83,000 compounds, 20% with a hit somewhere; the sample as a whole holds those more often.
MEASUREMENT_TYPE: growth (%)

compound=CC/C=C\C/C=C\C[C@H]1C/C=C2/C(=O)C=C[C@H]2C/C=C\CCC(=O)O1 assay_value=34.1
compound=Nc1c(C(=O)Nc2cccc(C(F)(F)F)c2)sc2nc3c(cc12)CCCCCC3 assay_value=20.8
compound=COc1ccc(/C=C(\C#N)c2ccc([N+](=O)[O-])cc2)c2ccccc12 assay_value=64.3
compound="CCNC(=O)C1CCCN1C(=O)C(CCCN=C(N)N)NC(=O)C(CC(C)C)NC(=O)C(CC(C)C)NC(=O)C(Cc1ccc(O)cc1)NC(=O)C(CO)NC(=O)C(Cc1c[nH]c2ccccc12)NC(=O)C(Cc1cnc[nH]1)NC(=O)C1CCC(=O)N1 (stereo not given)" assay_value=84.9
compound=CC(=O)OC[Si](C)(C)c1ccccc1 assay_value=92.1
compound=O=C(CCC(=O)OC1CCCC1)OC1CCCC1 assay_value=95.8
compound=O=C(O)c1ccc(-n2cc(CNc3ccc(C(F)(F)F)cc3)c(-c3ccccc3)n2)cc1 assay_value=87.2
compound="CCCCCCCCCN1C(=O)/C(=c2\\sc3n(c2=O)C2C(NN=3)N(CC)C(=O)N2CC)c2ccccc21 (stereo not given)" assay_value=34.8
compound=O=C1C2=C(C(=O)c3c(O)ccc(O)c31)N(c1cccnc1)Cc1ccccc1O2 assay_value=-96.2
compound=CCN(CC)CCSc1c2ccc(Cl)cc2nc2ccc(OC)cc12 assay_value=91.3
compound=Cc1cc(Nc2nc(C(=O)Nc3ccccc3)nc3ccccc23)n[nH]1 assay_value=24
compound=COc1ccc(-c2nc3sccn3c2-c2ccnc(NCCNS(=O)(=O)c3ccc(C(F)(F)F)cc3)n2)cc1 assay_value=17
compound=c1ccc2nc(-c3ccc4ccccc4n3)ccc2c1 assay_value=83.2
compound=CN(C)C/C=C/C(=O)Nc1cc2c(Nc3ccc(F)c(Cl)c3F)ncnc2cc1OCCOC(F)F assay_value=-15.3
compound="CC(=O)Nc1ccc(S(=O)(=O)N2C(=O)CCC2C(=O)Nc2ccc(Br)cc2)cc1 (stereo not given)" assay_value=32.3
compound=CCNC(=O)CCCCC(=O)c1c(C)[nH]c(/C=C2\N=C(c3ccc[nH]3)C=C2OC)c1C assay_value=-29.9
compound=Cc1cccc(NC(=O)c2sc3nc4c(cc3c2N)CCC4)c1C assay_value=30.5
compound="CC(C)C(C(=O)CCN(C)C)c1ccc(Cl)cc1 (stereo not given)" assay_value=102
compound="COc1cc(/C=C2\\CCCC3=C2N=C2SC(C)=NN2C3c2cc(OC)c(OC)c(OC)c2)cc(OC)c1OC (stereo not given)" assay_value=-38.1
compound=CCSc1nnc(NC(=O)COc2ccc(Cl)cc2C)s1 assay_value=85.8
